TARGET_ENTITY: panel of 255 wild-type kinases (Homo sapiens, UniProt P04629)
Sequence (P04629 33-796): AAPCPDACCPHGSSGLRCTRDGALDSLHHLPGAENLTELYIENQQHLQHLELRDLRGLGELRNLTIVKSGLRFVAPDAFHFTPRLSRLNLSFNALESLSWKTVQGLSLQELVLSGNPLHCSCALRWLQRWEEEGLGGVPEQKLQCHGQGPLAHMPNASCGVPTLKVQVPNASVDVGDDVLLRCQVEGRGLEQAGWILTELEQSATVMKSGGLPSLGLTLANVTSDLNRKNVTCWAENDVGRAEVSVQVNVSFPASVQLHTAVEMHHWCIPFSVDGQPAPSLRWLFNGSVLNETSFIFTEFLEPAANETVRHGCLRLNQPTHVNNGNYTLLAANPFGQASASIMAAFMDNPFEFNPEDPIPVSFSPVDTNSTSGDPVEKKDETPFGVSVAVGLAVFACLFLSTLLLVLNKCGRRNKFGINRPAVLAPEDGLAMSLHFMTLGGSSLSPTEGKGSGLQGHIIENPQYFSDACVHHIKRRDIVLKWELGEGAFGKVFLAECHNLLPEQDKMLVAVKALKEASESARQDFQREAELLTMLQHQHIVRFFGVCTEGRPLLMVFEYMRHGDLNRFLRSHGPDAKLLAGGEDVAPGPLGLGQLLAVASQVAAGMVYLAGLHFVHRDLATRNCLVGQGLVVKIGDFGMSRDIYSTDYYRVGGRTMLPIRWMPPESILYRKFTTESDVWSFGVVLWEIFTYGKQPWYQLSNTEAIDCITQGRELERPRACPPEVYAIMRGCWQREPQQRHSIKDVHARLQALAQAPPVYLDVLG
TEST_PROTOCOL: Kinase panel profiling at 1 µmol/L (MSA or IMAP), percentage inhibition
Assay type: biochemical
SETUP_CONDITIONS: kinase TRKA; 1 µmol/L single concentration; read-out: %-inhibition at 1 µmol/L, TRKA
PROPERTY_MEASURED: inhibition at 1 µM (%)

Reference set, count: 5
# STRUCTURE_AS_SMILES, TARGET_ENTITY, inhibition at 1 µM (%)
data = [
    ("COc1ccc(CN2C3CC2CN(c2ccc(-c4cc(OCC(C)(C)O)cn5ncc(C#N)c45)cn2)C3)cn1", "panel of 255 wild-type kinases (Homo sapiens, UniProt P04629)", 33),
    ("O=C(Nc1cnn2ccc(N3CCC[C@@H]3c3cc(F)ccc3F)nc12)N1CC[C@H](O)C1", "panel of 255 wild-type kinases (Homo sapiens, UniProt P04629)", 99),
    ("Cc1cc(Nc2ncnc3ccc(NC4=NC(C)(C)CO4)cc23)ccc1Oc1ccn2ncnc2c1", "panel of 255 wild-type kinases (Homo sapiens, UniProt P04629)", 20),
    ("CCN1CCN(c2ccc(Nc3cc(N(C)C(=O)Nc4c(Cl)c(OC)cc(OC)c4Cl)ncn3)cc2)CC1", "panel of 255 wild-type kinases (Homo sapiens, UniProt P04629)", 27),
    ("CCc1nc(C(N)=O)c(Nc2ccc(N3CCC(N4CCN(C)CC4)CC3)c(OC)c2)nc1NC1CCOCC1", "panel of 255 wild-type kinases (Homo sapiens, UniProt P04629)", 100),
]

[I] CO[C@]1(C(=O)N[C@@H](C)c2ccc(-n3cc(F)cn3)nc2)CC[C@H](c2nc(C)cc(Nc3cc(C)[nH]n3)n2)CC1
[II] C[C@H](Nc1ncnc2nc[nH]c12)c1cc2cccc(Cl)c2c(=O)n1-c1ccccc1
[III] Cn1cnc2c(F)c(Nc3ccc(Br)cc3Cl)c(C(=O)NOCCO)cc21
Q. Output the entries ranked by inhibition at 1 µM from maximum down to minimum. I would appreciate it if you listed the labels in the requested order.
A. I, III, II
(I: 96%, III: 18%, II: 9%)

----------
TARGET_ENTITY: panel of 255 wild-type kinases (Homo sapiens, UniProt P17252)
TEST_PROTOCOL: Kinase panel profiling at 1 µmol/L (MSA or IMAP), percentage inhibition
Format: biochemical
SETUP_CONDITIONS: kinase PKCα; 1 µmol/L single concentration; read-out: %-inhibition at 1 µmol/L, PKCα
PROPERTY_MEASURED: inhibition at 1 µM (%)

Reference set, count: 2
# STRUCTURE_AS_SMILES, VALUE_UNIT, inhibition at 1 µM
records = [
    ("Cc1nc(NC(=O)N2CCC[C@H]2C(N)=O)sc1-c1ccnc(C(C)(C)C(F)(F)F)c1", "%", 1.21),
    ("COC(=O)N[C@@H](C)CNc1nccc(-c2cn(C(C)C)nc2-c2cc(Cl)cc(NS(C)(=O)=O)c2F)n1", "%", 5),
]

[I] COc1cc2ncnc(Nc3ccc(F)c(Cl)c3)c2cc1NC(=O)/C=C/CN1CCCCC1
[II] Cn1cnc2c(F)c(Nc3ccc(Br)cc3F)c(C(=O)NOCCO)cc21
[III] C[C@H](Nc1ncnc2nc[nH]c12)c1cc2cccc(Cl)c2c(=O)n1-c1ccccc1
Q. Exam item: list the entries in increasing order of inhibition at 1 µM. I would appreciate it if you listed the labels in the requested order.
A. I, II, III

----------
Tested on: 134 cancer cell lines
TEST_PROTOCOL: Cell viability assay (ATPlite, 72 hours), IC50 on cancer cell line panel
SETUP_CONDITIONS: Homo sapiens, U-87 MG, read-out: IC50 in cell proliferation assay, cell line U-87MG ATCC
PROPERTY_MEASURED: IC50 (µM)

Reference set, count: 3
# COMPOUND, IC50 (µM)
records = [
    ("CN1CCN(c2ccc(C(=O)Nc3n[nH]c4ccc(Cc5cc(F)cc(F)c5)cc34)c(NC3CCOCC3)c2)CC1 [entrectinib]", 7.08),
    ("O=C(c1ccc(F)c(F)c1Nc1ccc(I)cc1F)N1CC(O)([C@@H]2CCCCN2)C1 [cobimetinib]", 0.925),
    ("CCc1nc(C(N)=O)c(Nc2ccc(N3CCC(N4CCN(C)CC4)CC3)c(OC)c2)nc1NC1CCOCC1 [gilteritinib]", 2.25),
]

[A] C[C@H](Nc1ncnc2nc[nH]c12)c1cc2cccc(Cl)c2c(=O)n1-c1ccccc1 [duvelisib]
[B] Cc1cc(Nc2ncc(Cl)c(Nc3ccccc3S(=O)(=O)C(C)C)n2)c(OC(C)C)cc1C1CCNCC1 [ceritinib]
Q. Hi, I'm comparing two records. Which one has the lower IC50, A or B ? Let me know the label of the one you choose.
A. B
(B: 4.44 µM, A: 10.5 µM)

----------
TARGET_ENTITY: panel of 255 wild-type kinases (Homo sapiens)
TEST_PROTOCOL: Kinase panel profiling at 1 µmol/L (MSA or IMAP), percentage inhibition
Type: biochemical
SETUP_CONDITIONS: NDR2; 1 µmol/L single concentration; read-out: %-inhibition, NDR2
PROPERTY_MEASURED: inhibition at 1 µM (%)

Reference set, count: 4
# MOLECULE, inhibition at 1 µM, %
records = [
    ("FC(F)(F)c1ccc(CNc2ccc(Cc3c[nH]c4ncc(Cl)cc34)cn2)cn1 [pexidartinib]", 8),
    ("Cn1cc(-c2cc3c(N4CCN(c5ncc([C@@](C)(N)c6ccc(F)cc6)cn5)CC4)ncnn3c2)cn1 [avapritinib]", -2.84),
    ("C[C@H]1Oc2cc(cnc2N)-c2c(nn(C)c2C#N)CN(C)C(=O)c2ccc(F)cc21 [lorlatinib]", 2.18),
    ("CN1CCN(c2ccc(C(=O)Nc3n[nH]c4ccc(Cc5cc(F)cc(F)c5)cc34)c(NC3CCOCC3)c2)CC1 [entrectinib]", 51),
]

[1] Cc1cc(Nc2ncnc3ccc(NC4=NC(C)(C)CO4)cc23)ccc1Oc1ccn2ncnc2c1 [tucatinib]
[2] CO[C@]1(C(=O)N[C@@H](C)c2ccc(-n3cc(F)cn3)nc2)CC[C@H](c2nc(C)cc(Nc3cc(C)[nH]n3)n2)CC1 [pralsetinib]
Q. Hi, I'm comparing two records. Which one has the lower inhibition at 1 µM, 1 or 2 ? Let me know the label of the one you choose.
A. 1

----------
The reader will find reported IC50 values listed item by item below.
Test system: 134 cancer cell lines
TEST_PROTOCOL: Cell viability assay (ATPlite, 72 hours), IC50 on cancer cell line panel
SETUP_CONDITIONS: Homo sapiens, KU812, read-out: IC50 in cell proliferation assay, Ku812 cell line
// return numeric value only (unit: µM, not printed)

# COMPOUND, VALUE_UNIT, IC50
rows = [
    ("COc1cc2ncnc(Nc3ccc(F)c(Cl)c3)c2cc1NC(=O)/C=C/CN1CCCCC1 [dacomitinib]", "µM", 3.2),
]

Would you kindly look at the next entry?
Q. What value of measured IC50 is listed for O=C(c1ccc(F)c(F)c1Nc1ccc(I)cc1F)N1CC(O)([C@@H]2CCCCN2)C1 [cobimetinib] ?
A. 0.064

----------
Test system: 134 cancer cell lines
TEST_PROTOCOL: Cell viability assay (ATPlite, 72 hours), IC50 on cancer cell line panel
SETUP_CONDITIONS: Homo sapiens, ACHN, read-out: IC50 in cell proliferation assay
PROPERTY_MEASURED: IC50 (µM)
// return numeric value only (unit: µM, not printed)

Q. What value of measured IC50 is listed for C[C@@H](Oc1cc(-c2cnn(C3CCNCC3)c2)cnc1N)c1c(Cl)ccc(F)c1Cl [crizotinib] ?
A. 3.71

----------
The reader will find reported inhibition at 1 µM values listed item by item below.
TARGET_ENTITY: panel of 255 wild-type kinases (Homo sapiens, UniProt Q96KB5)
Sequence (Q96KB5 1-322): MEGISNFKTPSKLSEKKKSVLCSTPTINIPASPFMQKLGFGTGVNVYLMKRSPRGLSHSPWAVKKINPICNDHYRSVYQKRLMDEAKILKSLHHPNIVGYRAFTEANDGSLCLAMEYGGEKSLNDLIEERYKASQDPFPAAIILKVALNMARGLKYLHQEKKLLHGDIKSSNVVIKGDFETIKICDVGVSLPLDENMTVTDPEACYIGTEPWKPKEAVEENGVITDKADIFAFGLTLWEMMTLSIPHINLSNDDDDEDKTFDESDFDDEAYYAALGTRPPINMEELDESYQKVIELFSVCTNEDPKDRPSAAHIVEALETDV
TEST_PROTOCOL: Kinase panel profiling at 1 µmol/L (MSA or IMAP), percentage inhibition
Format: biochemical
SETUP_CONDITIONS: kinase PBK; 1 µmol/L single concentration; read-out: %-inhibition at 1 µmol/L, PBK
// return numeric value only (unit: %, not printed)

Reference set, count: 3
# STRUCTURE_AS_SMILES, VALUE_UNIT, inhibition at 1 µM
measured = [
    ("CN1CCN(c2ccc(C(=O)Nc3n[nH]c4ccc(Cc5cc(F)cc(F)c5)cc34)c(NC3CCOCC3)c2)CC1", "%", -5.43),
    ("C=CC(=O)N1CCC([C@@H]2CCNc3c(C(N)=O)c(-c4ccc(Oc5ccccc5)cc4)nn32)CC1", "%", -4),
    ("C[C@H]1Oc2cc(cnc2N)-c2c(nn(C)c2C#N)CN(C)C(=O)c2ccc(F)cc21", "%", 1.39),
]

Would you kindly look at the next entry?
Q. What value of measured inhibition at 1 µM is listed for C[C@H](Nc1ncnc2nc[nH]c12)c1cc2cccc(Cl)c2c(=O)n1-c1ccccc1 ?
A. -1.84
